B1: TIA1 (parent)
chain: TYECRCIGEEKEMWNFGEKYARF

variants of: B1; assay: protein stability index of a GFP-peptide fusion (GPS, HEK-293T) (PSI 1-6); higher = more stable; settings: c terminus: native;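 also: lentivirally expressed fusions sorted by FACS into six bins by GFP to DsRed ratio, PSI derived from sequencing read proportions per bin multiplied by bin number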
propertyLabel: protein stability index
Please respond with just the number, no unit label.

W14D ... 2.61
C6M ... 1.84
M13C ... 2.14

For the variant "Y2R" , what protein stability index is on record?
3.07

For the variant "M13I" , what protein stability index is on record?
2.07

For the variant "G8T" , what protein stability index is on record?
2.47
